Molecular target: Glutathione peroxidase 1 (Homo sapiens)
Test: Primary qHTS Assay for Inhibitors of Recombinant Selenoprotein Glutathione Peroxidase 1 (GPX1) (AID 1845191); note: % is set by controls: 0 for no effect and ±100 for the full control effect; nearly all actives have a fitted effect of over 65% in size
Details: recombinant GPX1, GR-coupled NADPH fluorescence, 15 min; series mostly up to 27.7 µM
Records with an inconclusive call do not appear. Activity calls are given as the source filed them. Calls come from the whole dose curve; as a rule, active = well fitted inhibition curve with a large enough effect; inconclusive = small, poorly fitted or top-dose-only effect; inactive = flat fitted curve, though single readings scatter.
observed_property: outcome

INSERT INTO assay_data (molecule, observed_property, result) VALUES
  ('CC1(C)CC[C@]2(C(=O)O)CC[C@]3(C)C(=CCC4[C@@]5(C)CC[C@H](O[C@H]6O[C@H](C(=O)O)[C@@H](O)[C@H](O[C@@H]7O[C@H](CO)[C@H](O)[C@H](O)[C@H]7O)[C@H]6O)C(C)(C)C5CC[C@]43C)[C@@H]2C1 (stereo partly drawn)', 'outcome', 'inactive'),
  ('CCOC(=O)CSc1nc2c(sc3ccccc32)c(=O)n1CCCN1CCCC1', 'outcome', 'inactive'),
  ('O=C(O)CCc1cc2ccoc2cc1O[C@@H]1O[C@H](CO)[C@@H](O)[C@H](O)[C@H]1O', 'outcome', 'inactive');

###

System: KB-3-1
Experiment: Cytotoxic Profiling of Annotated Libraries Using Quantitative High-Throughput Screening (AID 1296008); note: % is set by controls: 0 for no effect and ±100 for the full control effect; nearly all actives have a fitted effect of over 60% in size
Conditions: Five cell lines viability, CellTiter-Glo ATP luminescence, 48-72 h; hits give low values
Results filed as inconclusive are left out.
observed_property: max response (%)

INSERT INTO assay_data (molecule, observed_property, recorded_number) VALUES
  ('COc1ccc2c(c1)C=C1Cn3c-2c(C2CCCCC2)c2ccc(cc23)C(=O)NS(=O)(=O)N(C)CCOCCN(C)C1=O', 'max response', -5.47),
  ('C=C1C(=O)O[C@@H]2CC(C)=C([C@@H](C)CCCOC(C)=O)[C@@H](O)[C@H]12', 'max response', 6.41),
  ('C/C=C(\C)C(=O)OC1CC2C(CC=C3CC(OC4CC(OC)C(OC5CC(OC)C(OC6CC(OC)C(OC7CC(OC)C(OC8CC(OC)C(OC9OC(CO)C(O)C(O)C9O)C(C)O8)C(C)O7)C(C)O6)C(C)O5)C(C)O4)CCC32C)C2(O)CCC(C(C)=O)C12C (configuration not stated)', 'max response', 8.92),
  ('O=C(OC[C@H]1O[C@H](O[C@]2(CO)O[C@H](CO)[C@@H](O)[C@@H]2O)[C@H](O)[C@@H](O)[C@@H]1O)c1ccc(O)cc1', 'max response', 0.316),
  ('CC1(C)CC[C@]2(C(=O)O)CC[C@]3(C)C(=CCC4[C@@]5(C)C[C@@H](O)[C@H](O)[C@@](C)(CO)C5CC[C@]43C)C2C1 (some centres not stated)', 'max response', -4.17),
  ('C[C@@H]1O[C@@H](O[C@H]2[C@H](OC(=O)[C@]34CCC(C)(C)C[C@H]3C3=CCC5[C@@]6(C)CC[C@H](O[C@@H]7O[C@H](CO[C@@H]8OC[C@H](O)[C@H](O)[C@H]8O[C@@H]8OC[C@@H](O)[C@H](O)[C@H]8O)[C@@H](O)[C@H](O)[C@H]7O)C(C)(C)C6CC[C@@]5(C)[C@]3(C)C[C@H]4O)O[C@H](CO)[C@@H](O)[C@@H]2O)[C@H](O[C@@H]2O[C@H](CO)[C@@H](O)[C@H](O)[C@H]2O)[C@H](O)[C@H]1O[C@@H]1OC[C@@H](O)[C@H](O[C@@H]2OC[C@@H](O)[C@H](O)[C@H]2O)[C@H]1O (some centres not stated)', 'max response', -0.626),
  ('C=C1CCC2C(C)(C)CC(O)CC2(C)C1CCC(C)CC(=O)O (configuration not stated)', 'max response', -5.43),
  ('COc1ccc(CCC(=O)O)c(O[C@@H]2O[C@H](CO)[C@@H](O)[C@H](O)[C@H]2O)c1', 'max response', -5.8),
  ('Cn1nccc1-c1ccccc1Oc1ccc(S(=O)(=O)Nc2nccs2)cc1C#N', 'max response', 2.49),
  ('C/C=C/C=C/C=C/C(=O)OC1C=C2C(O)OC(=O)[C@]2(O)[C@@]2(C)CCCC(C)(C)[C@H]12 (some centres not stated)', 'max response', 4.24),
  ('CC1=CC(=O)CC(C)(C)C1CO[C@@H]1O[C@H](CO)[C@@H](O)[C@H](O)[C@H]1O (some centres not stated)', 'max response', 7.69),
  ('CC(=O)O[C@@H]1C[C@@H](C)[C@](O)(CCC2=CC(=O)OC2)[C@@]2(C)CCCC(C)(C)C12 (some centres not stated)', 'max response', 9.64);

The reported numbers originate from PubChem BioAssay (NCATS).
